Test system: NCI-H522 lung
Assay: NCI-60 one-dose screen, 48 h (100 = growth as untreated, 0 = no growth, -100 = all killed)
Details: 10 µM unless noted
Description: Growth inhibition of the NCI-H522 human Non-Small Cell Lung tumor cell line is measured as a screen for anti-cancer activity. Cells are grown in 96 well plates and exposed to the test compound for 48 hours. Compounds are tested at a single concentration, which is 10^-5 M for most compounds. The reported endpoint is percent growth (GI% or GIPRCNT), where numbers from 0 - 100% represent growth inhibition, and numbers from -100% - 0 represent cell death. […]
The panel holds about 83,000 compounds, 20% with a hit somewhere; the sample as a whole holds those more often.
recorded metric: growth (%)

Cn1cc(-c2nc(-c3c[nH]c4ccncc34)cs2)c2cc(Br)ccc21	-70.8
CC/C=C\C/C=C/C=C1/C(=O)C=C[C@@H]1C/C=C\CCCC(=O)OC	-32.3
COc1ccc(C2=C/C(=C\c3ccc(Cl)cc3)C(=O)N2/N=C/c2ccc(Cl)cc2)cc1	73.9
Cc1ncc(C(=O)Nc2ccc(CN3CCN(C)CC3)c(C(F)(F)F)c2)cc1C#Cc1cnc(N)c2cnccc12	-0.528
Cc1cc(C(=O)Nc2cc(Nc3ncccc3-c3ncnc4nc[nH]c34)ccc2F)cc(C(F)(F)F)c1	63.1
COc1cccc(Nc2ccnc3[nH]c4ccc([N+](=O)[O-])cc4c23)c1	30.4
CCOc1ccc(/C=N\N=C\c2ccc(OCC)cc2)cc1	51.9
Cc1cccc(N2CCN(C(=S)c3ccc4c(c3)OCO4)CC2)c1	-25.2
C=C1C(=O)O[C@H]2[C@H]1CC/C(COC(=O)NCCCCCCCCNC(=O)OC/C1=C/CC[C@@]3(C)O[C@H]3[C@H]3OC(=O)C(=C)[C@@H]3CC1)=C\CC[C@@]1(C)O[C@@H]21	-68.7
C#CC#CC#CC#CC#CC#CC#CC#CCC1OCC(COC(=O)O[C@@H](C(=O)O[C@H]2C[C@@]3(O)[C@@H](OC(=O)c4ccccc4)[C@@H]4[C@]5(OC(C)=O)CO[C@@H]5C[C@H](O)[C@@]4(C)C(=O)[C@H](OC(C)=O)C(=C2C)C3(C)C)[C@@H](NC(=O)c2ccccc2)c2ccccc2)O1 (stereo not given in full)	24.3
CCCCCCCCn1ccc2cc(NC(=O)Cn3cc(CN4CCCCCC4)nn3)ccc21	52.4
COc1cc2c3c(c1O)-c1ccccc1[C@@H]1OC(=O)N(CC2)[C@H]31	94
CCN(CC)c1ccc(/C=N/NC(=O)c2ccc(Nc3ccnc(C(F)(F)F)c3)cc2)c(O)c1	49.7
CCOC(=O)c1c(-c2ccccc2)n2c(=O)cc(C)c3c(O)c(O)cc1c32	66.2
O=C1NC(=Nc2ccc(O)cc2)S/C1=C\c1cccs1	15.5
